Reference source for all entries: paper PMC4336329

# tested-system: human ether-à-go-go-related gene (hERG) potassium channel (human, UniProt Q12809);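 note: peak tail current of the secondary pulse compared with the same well before compound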
# Sequence (Q12809 whole entry, looked up): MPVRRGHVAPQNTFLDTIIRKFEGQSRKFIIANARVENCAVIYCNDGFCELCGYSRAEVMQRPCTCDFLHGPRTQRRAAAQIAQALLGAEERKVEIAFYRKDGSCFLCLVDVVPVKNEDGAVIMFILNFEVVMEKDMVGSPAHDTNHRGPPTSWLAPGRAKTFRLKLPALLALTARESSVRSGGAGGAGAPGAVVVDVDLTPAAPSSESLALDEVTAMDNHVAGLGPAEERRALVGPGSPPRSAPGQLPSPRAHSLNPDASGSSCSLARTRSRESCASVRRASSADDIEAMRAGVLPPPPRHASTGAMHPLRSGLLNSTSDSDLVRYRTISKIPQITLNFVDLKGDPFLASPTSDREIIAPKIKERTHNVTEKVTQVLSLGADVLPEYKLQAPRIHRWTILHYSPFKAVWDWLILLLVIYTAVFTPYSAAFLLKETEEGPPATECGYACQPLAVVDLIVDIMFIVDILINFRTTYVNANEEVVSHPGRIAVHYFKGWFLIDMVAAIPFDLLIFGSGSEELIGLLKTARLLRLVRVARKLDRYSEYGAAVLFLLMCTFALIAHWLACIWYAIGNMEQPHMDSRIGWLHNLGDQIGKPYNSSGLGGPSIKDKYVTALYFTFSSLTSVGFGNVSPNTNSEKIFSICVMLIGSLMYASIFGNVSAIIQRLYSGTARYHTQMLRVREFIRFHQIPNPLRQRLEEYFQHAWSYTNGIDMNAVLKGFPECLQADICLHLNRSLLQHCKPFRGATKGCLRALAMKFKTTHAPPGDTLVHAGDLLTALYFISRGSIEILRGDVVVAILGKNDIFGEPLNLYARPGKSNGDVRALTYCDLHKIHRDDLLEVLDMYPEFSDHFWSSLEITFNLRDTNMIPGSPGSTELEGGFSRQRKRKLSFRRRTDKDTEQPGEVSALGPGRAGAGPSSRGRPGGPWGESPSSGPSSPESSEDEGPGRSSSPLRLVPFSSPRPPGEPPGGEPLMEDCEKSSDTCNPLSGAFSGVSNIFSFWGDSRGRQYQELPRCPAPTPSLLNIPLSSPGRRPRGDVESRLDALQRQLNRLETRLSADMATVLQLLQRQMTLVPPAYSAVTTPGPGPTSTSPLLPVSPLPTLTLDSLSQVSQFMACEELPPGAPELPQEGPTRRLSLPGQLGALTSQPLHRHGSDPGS
# experiment-notes: primary screen, population patch clamp on CHO cells stably expressing hERG; higher = less effect of the substance
Hit rate of the full screen: of about 310,000 compounds, about 14,000 (4.5%) showed an effect of 50% or more. Effects have a minus sign here. Many of the other results were omitted from the sample, so strong results are more common in it than they were.
value-type: hERG current change (%, negative = inhibition) at 10uM
Respond with a number, then the unit of measure.

Tell me the measured hERG current change (%, negative = inhibition) at 10uM of c1ccc(COc2ccccc2CNc2nn[nH]n2)cc1 , please.
13.1%

Tell me the measured hERG current change (%, negative = inhibition) at 10uM of CC1CCCC(N2CCN(C(=O)c3cccc(F)c3)CC2)C1.O=C(O)C(=O)O (stereo not drawn) , please.
-6.93%

Tell me the measured hERG current change (%, negative = inhibition) at 10uM of CCCCC(CC)CNC(=O)C1C2C=CC(C2)C1C(=O)O (stereo not drawn) , please.
-4.63%

Tell me the measured hERG current change (%, negative = inhibition) at 10uM of O=C1Nc2cc(C(=O)NCCCN3CCCC3)ccc2S/C1=C\c1ccccc1 , please.
-51.4%

Tell me the measured hERG current change (%, negative = inhibition) at 10uM of Cc1ccc(C2/C(=C(/O)c3ccccc3)C(=O)C(=O)N2CCN2CCOCC2)o1 (stereo not drawn) , please.
-2.22%

Tell me the measured hERG current change (%, negative = inhibition) at 10uM of O=C(NCCCN1CCCCC1)c1ccc2c(c1)NC(=O)c1ccccc1S2 , please.
-13.7%

Tell me the measured hERG current change (%, negative = inhibition) at 10uM of O=C1Nc2cc(C(=O)NCCCN3CCOCC3)ccc2S/C1=C/c1ccccc1F , please.
-29.8%

Tell me the measured hERG current change (%, negative = inhibition) at 10uM of CC(=O)c1cc(CN2C(=O)CCC2=O)cs1 , please.
5.27%

Tell me the measured hERG current change (%, negative = inhibition) at 10uM of O=C1Nc2cc(C(=O)NCCN3CCCCCC3)ccc2S/C1=C\c1ccccc1 , please.
-43.9%

Tell me the measured hERG current change (%, negative = inhibition) at 10uM of O=C(C[n+]1cc(Br)cc(Br)c1)c1ccccc1.[Br-] , please.
8.53%

Tell me the measured hERG current change (%, negative = inhibition) at 10uM of CCOP(=O)(OCC)c1nc(-c2cccc3ccccc23)oc1NCc1ccccc1 , please.
10.2%

Tell me the measured hERG current change (%, negative = inhibition) at 10uM of O=C1Nc2cc(C(=O)NCC3CCCO3)ccc2S/C1=C/c1ccccc1F (stereo not drawn) , please.
-4.84%

Tell me the measured hERG current change (%, negative = inhibition) at 10uM of COc1ccc(N(C(=O)CNC(=O)c2ccco2)C(C(=O)NC2CCCC2)c2ccncc2)cc1 (stereo not drawn) , please.
13.1%

Tell me the measured hERG current change (%, negative = inhibition) at 10uM of COCCNC(=O)c1cc2c(=O)n3cccc(C)c3nc2n1C , please.
11.7%

Tell me the measured hERG current change (%, negative = inhibition) at 10uM of CNC(=O)COC(=O)c1ccccc1Oc1ccccc1 , please.
-5.63%

Tell me the measured hERG current change (%, negative = inhibition) at 10uM of O=C(c1ccc(Cl)cc1)N1CCN(c2ncccn2)CC1 , please.
6.85%

Tell me the measured hERG current change (%, negative = inhibition) at 10uM of Cl.O=C(c1ccc(Cn2ccc([N+](=O)[O-])n2)cc1)N1CCN(Cc2ccccc2)CC1 , please.
-56.1%

Tell me the measured hERG current change (%, negative = inhibition) at 10uM of O=C(CCSc1ccc(Cl)cc1)N1CCN(c2ccc(O)cc2)CC1 , please.
-23.8%

Tell me the measured hERG current change (%, negative = inhibition) at 10uM of COc1ccccc1Cc1nc(-c2cccnc2)no1 , please.
14.8%

Tell me the measured hERG current change (%, negative = inhibition) at 10uM of C=CCn1cc(C(=O)NCCOC)c(=O)c2cc(S(=O)(=O)N(CC)CC)ccc21 , please.
-13.9%

Tell me the measured hERG current change (%, negative = inhibition) at 10uM of COCCNC(=O)c1cc2c(=O)n3cccc(C)c3nc2n(Cc2ccncc2)c1=N , please.
-70%

Tell me the measured hERG current change (%, negative = inhibition) at 10uM of C=CCn1cc(C(=O)NCCOC)c(=O)c2cc(S(=O)(=O)N3CCCCCC3)ccc21 , please.
-65.8%

Tell me the measured hERG current change (%, negative = inhibition) at 10uM of C=CCn1cc(C(=O)NCc2ccc(Cl)cc2)c(=O)c2cc(S(=O)(=O)N(CC)CC)ccc21 , please.
-22.5%

Tell me the measured hERG current change (%, negative = inhibition) at 10uM of Cc1ccccc1C(=O)N1CCC(C(=O)N2CCN(c3ncccn3)CC2)CC1 , please.
7.94%

Tell me the measured hERG current change (%, negative = inhibition) at 10uM of C=CCn1cc(C(=O)OC)c(=O)c2cc(S(=O)(=O)N3CCCCCC3)ccc21 , please.
-0.223%

Tell me the measured hERG current change (%, negative = inhibition) at 10uM of O=C(CCSc1ccc(Cl)cc1)N1CCN(c2ncccn2)CC1 , please.
-60.6%

Tell me the measured hERG current change (%, negative = inhibition) at 10uM of C=CCn1cc(C(=O)NCCN(CC)CC)c(=O)c2cc(S(=O)(=O)N3CCCCCC3)ccc21 , please.
-71.6%

Tell me the measured hERG current change (%, negative = inhibition) at 10uM of Cc1cccc(N2CCN(CC(=O)N(C3CCCC3)C3CCS(=O)(=O)C3)CC2)c1C (stereo not drawn) , please.
-13.3%

Tell me the measured hERG current change (%, negative = inhibition) at 10uM of C=CCn1cc(C(=O)NCc2cccnc2)c(=O)c2cc(S(=O)(=O)N(CC)CC)ccc21 , please.
-74.4%

Tell me the measured hERG current change (%, negative = inhibition) at 10uM of O=C(c1ccc(Cl)cc1)N1CCC(C(=O)N2CCN(c3ncccn3)CC2)CC1 , please.
-56.6%

Tell me the measured hERG current change (%, negative = inhibition) at 10uM of O=C(c1ccc2ccccc2c1)N1CCN(c2ccccn2)CC1 , please.
-20%

Tell me the measured hERG current change (%, negative = inhibition) at 10uM of Cc1ccc(CC(CC(=O)Nc2cccc(C(F)(F)F)c2)C(=O)O)cc1 (stereo not drawn) , please.
18%

Tell me the measured hERG current change (%, negative = inhibition) at 10uM of CCOC(=O)c1c(NC(=O)CSc2nnc(-c3ccccc3)n2CC)sc(C(C)=O)c1C , please.
-31%

Tell me the measured hERG current change (%, negative = inhibition) at 10uM of C=CCn1cc(C(=O)NCc2ccco2)c(=O)c2cc(S(=O)(=O)N3CCCCCC3)ccc21 , please.
-36.4%

Tell me the measured hERG current change (%, negative = inhibition) at 10uM of COc1ccccc1C1C2=C(CCCC2=O)N(CC(=O)O)C2=C1C(=O)CCC2 , please.
15.9%

Tell me the measured hERG current change (%, negative = inhibition) at 10uM of COCCNC(=O)c1cn(C)c2ccc(S(=O)(=O)N3CCCCC3)cc2c1=O , please.
11.1%

Tell me the measured hERG current change (%, negative = inhibition) at 10uM of O=[N+]([O-])c1cc([N+](=O)[O-])c(N2CCCCCC2)cc1NCCO , please.
-13.4%

Tell me the measured hERG current change (%, negative = inhibition) at 10uM of CC(=O)c1cc(Cc2csc(C(C)=O)c2)cs1 , please.
2.75%

Tell me the measured hERG current change (%, negative = inhibition) at 10uM of CN(C)c1ccc(-c2nc3cc(N)ccc3o2)cc1 , please.
6.31%
